Values from PubChem BioAssay AID624204

assayed_target: Sentrin-specific protease 1 (Homo sapiens)
experiment_description: blockers of SENP1 SUMO protease activity – biochemical, FRET, uHTS, primary screen (AID 624204);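 also: 0% = enzyme with DMSO and 100% = no enzyme wells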
test_conditions: recombinant SENP1 catalytic domain, CyPet-SUMO1-YPet FRET cleavage; at 10 µM; active compounds read high
The campaign covered roughly 360,000 compounds. About 770 (0.21%) were called active. Only a selection was taken, and actives are over-represented in it overall.
Param threshold (0.9%) applies to inhibition; output true (1) when value >= threshold, false (0) when value < threshold.

Task item: Textbook exercise: given the entry COc1ccc(S(=O)(=O)N2CCOC2CNC(=O)C(=O)NCc2ccc(F)cc2)cc1 (stereo not given) , state whether its inhibition is greater than or equal to 0.9%.
Reply: true (1)

Task item: Textbook exercise: given the entry CCOC(=O)N(C)c1c(CC)nc2c(OCc3ccccc3C(=O)OC)cccn12 , state whether its inhibition is greater than or equal to 0.9%.
Reply: false (0)

Task item: Textbook exercise: given the entry CNS(=O)(=O)c1cccc(C(=O)OCCCC(=O)c2ccccc2)c1 , state whether its inhibition is greater than or equal to 0.9%.
Reply: false (0)

Task item: Textbook exercise: given the entry O=C(CSc1nnc(-c2ccncc2)n1-c1ccc(Cl)cc1)Nc1ccc(C(=O)O)cc1 , state whether its inhibition is greater than or equal to 0.9%.
Reply: false (0)

Task item: Textbook exercise: given the entry O=C(CCNS(=O)(=O)c1cccs1)N1CCN(c2ccc(F)cc2)CC1 , state whether its inhibition is greater than or equal to 0.9%.
Reply: true (1)

* * *

assayed_target: Sentrin-specific protease 1 (Homo sapiens) (UniProt Q9P0U3)
Sequence (Q9P0U3 419-644 limits assumed): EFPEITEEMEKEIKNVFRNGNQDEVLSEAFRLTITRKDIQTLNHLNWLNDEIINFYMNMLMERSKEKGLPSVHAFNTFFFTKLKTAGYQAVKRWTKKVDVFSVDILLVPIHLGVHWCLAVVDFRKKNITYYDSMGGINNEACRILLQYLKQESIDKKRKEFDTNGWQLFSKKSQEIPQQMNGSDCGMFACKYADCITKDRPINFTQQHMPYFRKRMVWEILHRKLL
experiment_description: blockers of SENP1 SUMO protease activity – biochemical, FRET, uHTS, primary screen (AID 624204);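 also: 0% = enzyme with DMSO and 100% = no enzyme wells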
test_conditions: recombinant SENP1 catalytic domain, CyPet-SUMO1-YPet FRET cleavage; at 10 µM
The campaign covered roughly 360,000 compounds. About 770 (0.21%) were called active.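 How the source made its calls: active means inhibition at least 30% at 10 µM, raw YFP signal under a set limit, fluorescence ratio 0.5 to 1.5; inactive means the rest.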 This is one part of a sample in which actives are shown more often than they occur.
Entry note: the call must match one of class 1 (active), class 0 (inactive)

Task item: Hello, I am checking results. What call was entered for COc1ncnc2c1N=C1CC(C)(C)CC(N)=C1S2 ?
Reply: class 1

Task item: Hello, I am checking results. What call was entered for Cc1cccc(C)c1Nc1c(-c2ccccc2O)nc2ncccn12 ?
Reply: class 1

Task item: Hello, I am checking results. What call was entered for Fc1cccc(Cc2c(-c3ccc(Cl)cc3)nc3ccc(Cl)cn23)c1 ?
Reply: class 0

Task item: Hello, I am checking results. What call was entered for CCOC(=O)C1CCN(Cc2ccc(-c3ccccc3)cc2)CC1 ?
Reply: class 0

Task item: Hello, I am checking results. What call was entered for N#CCC(=O)NC1CCC(CC2CCC(NC(=O)CC#N)CC2)CC1 (stereo unspecified) ?
Reply: class 0

Task item: Hello, I am checking results. What call was entered for CC(C)n1cnc2c(NCc3ccccc3)cc(OCC3CCN(C)CC3)cc21 ?
Reply: class 0

Task item: Hello, I am checking results. What call was entered for Cc1cc2c(cc1C)NC1(C[C@H]3CCC(=O)N4CC[C@@H](C1)[C@@H]34)C(=NC(C)(C)CC(C)(C)C)N2 (stereo partly specified) ?
Reply: class 0

Task item: Hello, I am checking results. What call was entered for CCc1ccc(C(=O)NN=C2CCCCCC2)s1 ?
Reply: class 0

Task item: Hello, I am checking results. What call was entered for Cc1ccc(F)c(NC(=O)CCc2ccccc2)c1 ?
Reply: class 0

Task item: Hello, I am checking results. What call was entered for O=C(C[C@H]1C[C@H]2c3cc(NS(=O)(=O)c4ccc(F)cc4)ccc3O[C@H]2[C@H](CO)O1)NCc1cc(F)ccc1F ?
Reply: class 0

Task item: Hello, I am checking results. What call was entered for Cc1ccccc1Nc1c(-c2ccccc2)nc2ncccn12 ?
Reply: class 0

Task item: Hello, I am checking results. What call was entered for O=C1/C(=C\c2ccc(O)cc2)CCC1CNc1ccc(Cl)cc1 (stereo unspecified) ?
Reply: class 0

Task item: Hello, I am checking results. What call was entered for CCOC(=O)C1CCN(C(=O)CN2C(=O)c3cccnc3Oc3ccc(C)cc32)CC1 ?
Reply: class 0

Task item: Hello, I am checking results. What call was entered for CN(C)c1ccc(Nc2c3c4c(cccc4n(C)c2=O)C(=O)c2ccccc2-3)cc1 ?
Reply: class 1

Task item: Hello, I am checking results. What call was entered for CC(C)(C)OC(=O)C[C@@H]1C/C=C\C[C@@H](CC(=O)N[C@@H](CO)Cc2ccccc2)C(=O)N2CCC[C@H]2COC1=O ?
Reply: class 0

Task item: Hello, I am checking results. What call was entered for COC(=O)C(C)N=Cc1ccccc1 (stereo unspecified) ?
Reply: class 0

Task item: Hello, I am checking results. What call was entered for CCCCN(C(=O)CSCC(=O)Nc1ccc(OC)cc1)c1c(N)n(CCC)c(=O)[nH]c1=O ?
Reply: class 0

Task item: Hello, I am checking results. What call was entered for CCOC(=O)c1cc2c(=O)n3ccccc3nc2n(CC(C)C)c1=NC(=O)c1c(-c2c(F)cccc2Cl)noc1C ?
Reply: class 0

Task item: Hello, I am checking results. What call was entered for O=C(Cc1ccc(Cl)cc1)NC(=S)Nc1ccccc1O ?
Reply: class 0

Task item: Hello, I am checking results. What call was entered for O=C(CNC(=O)N1CC(=O)Nc2ccccc21)Nc1ccc(Br)cc1F ?
Reply: class 0

Task item: Hello, I am checking results. What call was entered for COC(=O)N/N=C/c1c[n+]([O-])c2ccccc2[n+]1[O-] ?
Reply: class 1

* * *

assayed_target: Sentrin-specific protease 1 (Homo sapiens)
experiment_description: blockers of SENP1 SUMO protease activity – biochemical, FRET, uHTS, primary screen (AID 624204);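 also: 0% = enzyme with DMSO and 100% = no enzyme wells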
test_conditions: recombinant SENP1 catalytic domain, CyPet-SUMO1-YPet FRET cleavage; at 10 µM; active compounds read high
The campaign covered roughly 360,000 compounds. About 770 (0.21%) were called active. The sample as a whole holds a higher share of actives than the screen did.
readout_type: inhibition

Task item: Name the recorded inhibition of the item COCCNc1nc2nonc2nc1N1CCCC1c1nccs1 (stereo not given) in your answer.
Reply: -72.6% (inactive)

Task item: Name the recorded inhibition of the item CCC1([N+](=O)[O-])COC(c2ccc(C(C)C)cc2)OC1 (stereo not given) in your answer.
Reply: 2.7% (inactive)

Task item: Name the recorded inhibition of the item CCN(CC)S(=O)(=O)c1ccc2c3c(cccc13)C(=O)S2 in your answer.
Reply: -5.16% (inactive)

Task item: Name the recorded inhibition of the item Cc1ccc(CN2CCN(Cc3cccc(C)n3)CC2CCO)cc1 (stereo not given) in your answer.
Reply: -3.82% (inactive)

Task item: Name the recorded inhibition of the item COc1ccc(N2CCN(C(=O)c3ccc(N4CCCCS4(=O)=O)cc3)CC2)cc1 in your answer.
Reply: -2.08% (inactive)

Task item: Name the recorded inhibition of the item Cn1cc(/C=C/C(=O)N2CCCC(C(=O)c3ccc(C(F)(F)F)cc3)C2)cn1 (stereo not given) in your answer.
Reply: 0.414% (inactive)

Task item: Name the recorded inhibition of the item O=[N+]([O-])c1cc(S(=O)(=O)Nc2cccc(Cl)c2)ccc1N=Nc1c(O)[nH]c2ccccc12 in your answer.
Reply: 7.59% (inactive)

Task item: Name the recorded inhibition of the item COc1ccc(CC2c3cc(OC)c(OC)cc3CC[N+]2(C)CCC(=O)OCCCCCOC(=O)CC[N+]2(C)CCc3cc(OC)c(OC)cc3C2Cc2ccc(OC)c(OC)c2)cc1OC (stereo not given) in your answer.
Reply: -1.31% (inactive)

Task item: Name the recorded inhibition of the item CCc1ccc(OC(C)C(=O)Nc2ccc(S(=O)(=O)Nc3cc(C)on3)cc2)cc1 (stereo not given) in your answer.
Reply: 2.02% (inactive)

Task item: Name the recorded inhibition of the item O=C(CCn1nnc2ccccc2c1=O)N[C@@H](Cc1c[nH]c2ccccc12)C(=O)O in your answer.
Reply: 0.24% (inactive)

Task item: Name the recorded inhibition of the item CO[C@H]1[C@@H]2C=CO[C@@H](O[C@H]3O[C@@H](CO)[C@H](O)[C@@H](O)[C@@H]3O)[C@@H]2[C@@]2(CO)O[C@@H]12 in your answer.
Reply: -2% (inactive)

Task item: Name the recorded inhibition of the item Cc1ccc(NC(=O)Cn2c(=O)n(CCC(=O)NC3CCN(Cc4ccccc4)CC3)c(=O)c3ccccc32)cc1 in your answer.
Reply: 2.04% (inactive)

Task item: Name the recorded inhibition of the item CNCC[C@H](Oc1ccc(C(F)(F)F)cc1)c1ccccc1 in your answer.
Reply: -0.124% (inactive)

Task item: Name the recorded inhibition of the item Nn1c(Cc2cccc3ccccc23)nnc1SCC(=O)N1CC(=O)Nc2ccccc21 in your answer.
Reply: 3.32% (inactive)

Task item: Name the recorded inhibition of the item COc1ccc(S(=O)(=O)N2CCC(C(=O)NCCC(=O)NCCc3cccc(F)c3)CC2)cc1 in your answer.
Reply: 1.66% (inactive)

Task item: Name the recorded inhibition of the item Cc1cccc(NC(=O)N(Cc2cc3cc(C)cc(C)c3[nH]c2=O)CC2COCCO2)c1 (stereo not given) in your answer.
Reply: 1.21% (inactive)

Task item: Name the recorded inhibition of the item Cc1cccc(NC(=O)c2ccc3c(=O)n(CC4CCCO4)c(=S)[nH]c3c2)c1 (stereo not given) in your answer.
Reply: -0.024% (inactive)

Task item: Name the recorded inhibition of the item CCCC(=O)N1CCC(CCC(=O)NC2CC2)CC1 in your answer.
Reply: 2.3% (inactive)

Task item: Name the recorded inhibition of the item O=[N+]([O-])/C(N=Nc1ccccc1)=N\Nc1ccccc1 in your answer.
Reply: 0.203% (inactive)

Task item: Name the recorded inhibition of the item O=C(NC1CCCCC1)C1CC(=O)N(CCc2ccccc2)C1 (stereo not given) in your answer.
Reply: 1.46% (inactive)
